Experiment: AGP1-GFP expression modulators, hit retest, confirmation, cell-based, flow cytometry, S. cerevisiae, cherry picks (AID 2273);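 further: median GFP channel fluorescence over the whole cell population gate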
Conditions: S. cerevisiae AGP1-GFP strain, 3 h, at 10 µM
assay metric: GFP response, % of DMSO (%)
Use % as the unit, but write only the number.

Here is how some compounds turned out for GFP response, % of DMSO.
* O=S(=O)(/N=C(\Sc1ccc(Cl)cc1)c1ccccc1)c1ccccc1 | 101
* Cc1cccc(Sc2ccc([N+](=O)[O-])cn2)c1 | 104
* CSC1=NS(=O)(=O)c2c(C)nn(C)c2S1 | 104
* COCCN(CCOC)S(=O)(=O)c1ccc(C(=O)Nc2nnc(C3CC3)o2)cc1 | 101
* CCC(=O)Nc1ccc(NC(=O)c2cc3ccccc3o2)cc1 | 101
* CCC(=O)N/C(N)=N/c1nc2ccccc2o1 | 96.2
* Cc1ccc(S(=O)(=O)N(Cc2ccccc2)Cc2ccco2)cc1 | 97.8
* COc1ccc(/C=C/C(=O)c2ccc(Cl)cc2)c(OC)c1 | 90.2

Prompt: Could you share which GFP response, % of DMSO value was measured for C=CCNC(=O)/C(=C\c1ccc(OC)cc1)NC(=O)c1ccc([N+](=O)[O-])cc1 ?
Response: 100

Prompt: Queued: O=C(Nc1ccccc1O)c1ccccc1O
Response: 103

Prompt: Queued: CCc1nnc(NC(=O)c2ccc(S(=O)(=O)N(CCOC)CCOC)cc2)o1
Response: 97.8

* * *

Reported GFP response vs DMSO values for the following molecules.
Test: RPL19A-GFP modulators, yeast TOR pathway, confirmation, cell-based, S. cerevisiae, flow cytometry, cherry picks, mother/daughter gates (AID 2270)
Details: S. cerevisiae RPL19A-GFP strain, 3 h, at 10 µM, stronger effect = lower value, 100 = same GFP as DMSO wells
Use % as the unit, but write only the number.

Here is how some molecules turned out for GFP response vs DMSO.
• Fc1ccc(/C=N/Nc2nc(-c3cccnc3)nc3ccccc23)cc1 = 94.5
• O=C1Nc2ccccc2/C1=C\C(=O)c1ccccc1 = 99
• O=C(OCC(=O)N1CCN(C(=O)c2ccco2)CC1)c1cc(-c2ccc(Cl)c(Cl)c2Cl)nc2ccccc12 = 90.1

Prompt: Could you share which GFP response vs DMSO value was measured for O=C(c1ccc([N+](=O)[O-])o1)N1CCN(c2nc3ccc(F)cc3s2)CC1 ?
Response: 99.8

Prompt: Queued: O=C(CN1C(=O)c2cccc3cccc(c23)C1=O)N1CCCCCC1
Response: 102

* * *

Assay: inhibitors of CD8+ T cell-vesicle binding, pilot screen, LFA-1/ICAM-1 modulator project, MLPCN validation set, flow cytometry (AID 2523)
Conditions: 2C mouse CD8+ T cells, at 7 µM, stronger effect = lower value; measured here: CD8+/vesicle+ event percentage
Reported double positive events values for the following compounds.
Use % as the unit, but write only the number.

Prompt: Could you share which double positive events value was measured for Cc1cccc(N2C(=O)C3C(c4ccccc4)OC4(C(=O)c5ccccc5C4=O)C3C2=O)c1 (configuration not stated) ?
Response: 56.8

* * *

Assay: LAP4-GFP expression modulators in yeast, confirmation, cell-based, cherry picks, flow cytometry, mother/daughter gates (AID 2271);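 further: ratio of sample to DMSO plate mean so 100% equals DMSO level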
Details: S. cerevisiae LAP4-GFP strain, 3 h, at 10 µM, stronger effect = higher value, 100 means same as DMSO control
assay metric: GFP response relative to DMSO (%)
Use % as the unit, but write only the number.

* CS(=O)(=O)Nc1cccc(C2=NN(S(C)(=O)=O)C(c3ccc4c(c3)OCO4)C2)c1 (stereo unspecified) | 99.2
* O=C(OCC(=O)N1CCN(C(=O)c2ccco2)CC1)c1cc(-c2ccc(Cl)c(Cl)c2Cl)nc2ccccc12 | 97.9
* Cc1nn2c(N3CCOCC3)c3c(nc2c1-c1ccccc1)CCCC3 | 101
* CC(=O)Nc1cccc(/C(C)=N/NC(=O)c2ccccc2Cl)c1 | 102
* COc1ccc(-c2nn(-c3ccccc3)cc2C(=O)N/N=C/c2ccc([N+](=O)[O-])o2)cc1 | 84.2

Prompt: Could you share which GFP response relative to DMSO value was measured for Cc1ccc(N2C3=C(C(=O)CC(C)(C)C3)C(c3cn(C)nc3C)C3=C2CC(C)(C)CC3=O)cc1 ?
Response: 119

Prompt: Queued: Oc1c(Br)cc(Br)cc1C=Nc1cccc2ncccc12
Response: 125

Prompt: Queued: C=CCN1C(=O)C2(C(C#N)=C(N)Oc3n[nH]c(CCC)c32)c2ccccc21 (stereo unspecified)
Response: 97.4
